System: K-562 leukemia
Assay: NCI tumour cell line growth inhibition, 48 h
attributeMeasured: TGI

Check out these entries, answers already filled in.
>  <compound>
O=C1C2C(C(=O)N1c1ccccc1)C1c3ccccc3C2C2C(=O)N(c3ccccc3)C(=O)C21 (stereo not drawn)

>  <testedTarget>
K-562 leukemia

>  <TGI>
> 100 µM

$$$$
>  <compound>
COc1ccccc1/C=C1\COc2ccc(-c3ccccc3)cc2C1=O

>  <testedTarget>
K-562 leukemia

>  <TGI>
> 100 µM

$$$$
>  <compound>
COC1C(OC(=O)c2ccc(C)[nH]2)C(O)C(Oc2ccc3c(O)c(NC(=O)c4c[nH]c(C(=O)Nc5c(O)c6ccc(OC7OC(C)(C)C(OC)C(OC(=O)c8ccc(C)[nH]8)C7O)c(C)c6oc5=O)c4C)c(=O)oc3c2C)OC1(C)C (stereo not drawn)

>  <testedTarget>
K-562 leukemia

>  <TGI>
> 100 µM

$$$$

Please report the measured TGI for Cc1ccc(/C=C/c2c(C(=O)/C=C/c3ccccc3)c(C)nc3ccccc23)cc1 tested on K-562 leukemia. 5.38 µM

Please report the measured TGI for C[C@H](c1ccc(Cl)cc1[N+](=O)[O-])N1C(=O)c2cc(I)ccc2N=C(OCCCN2CCN(C)CC2)[C@@H]1c1ccc(Cl)cc1 tested on K-562 leukemia. 4.03 µM

Please report the measured TGI for CC(C)(C)OC(=O)N/C(C=O)=C\C1CCCCC1 tested on K-562 leukemia. 46.2 µM

Please report the measured TGI for C[N+]1=c2c3cccc4cccc(c(=O)n2CC1)c43 tested on K-562 leukemia. 47.7 µM

Please report the measured TGI for CC(C)(C)c1ccc(C(O)CCCN2CCC(C(O)(c3ccccc3)c3ccccc3)CC2)cc1 (stereo not drawn) tested on K-562 leukemia. 5.14 µM

Please report the measured TGI for CC(C)(C)OC(=O)[C@@H]1CCC(=O)N1C1(c2ccccc2)c2ccccc2-c2ccccc21 tested on K-562 leukemia. > 100 µM

Please report the measured TGI for COC(=O)[C@H](Cc1c[nH]c2ccccc12)NP(=O)(OCCC#N)OCC1OC(n2cc(C)c(=O)[nH]c2=O)CC1N=[N+]=[N-] (stereo partly drawn) tested on K-562 leukemia. > 100 µM

Please report the measured TGI for CN1/C(=C/C=C/C=C/C=C2C(=O)c3ccccc3C2=O)C(C)(C)c2ccccc21 tested on K-562 leukemia. > 100 µM

Please report the measured TGI for CSC(=S)Nc1cc(C)cc(C)n1 tested on K-562 leukemia. > 31.6 µM

Please report the measured TGI for COc1ccccc1-n1c(=O)n(C)c(=O)n1C(C)(C)C tested on K-562 leukemia. > 100 µM

Please report the measured TGI for O=C(O)CSc1ccccc1C(=O)O tested on K-562 leukemia. > 100 µM

Please report the measured TGI for CC(C)/C=C1\CCC(CN2CCOCC2)C1=O (stereo not drawn) tested on K-562 leukemia. 9.06 µM

Please report the measured TGI for COc1ccc2c(c1)/C(=C\c1ccncc1)C(=O)N2 tested on K-562 leukemia. 9.56 µM

Please report the measured TGI for CCC[CH2][Sn]([CH2]CCC)([O]C(=O)c1cc(OC)c(OC)cc1OC)[O][Sn]([CH2]CCC)([CH2]CCC)[O]C(=O)c1cc(OC)c(OC)cc1OC tested on K-562 leukemia. 8.43 µM

Please report the measured TGI for O=C(NCCN1CCOCC1)OCc1nc2nc(Cl)nc(N3CCOCC3)c2[nH]1 tested on K-562 leukemia. > 100 µM

###

// reported TGI for each item listed
System: HOP-92 NSCLC
Assay: NCI tumour cell line growth inhibition, 48 h
Answer in µM, number only, no unit symbol.

Specify reported TGI for the molecule shown: Cc1ccc(S(=O)(=O)N2C[C@@H]3CC[C@]4(CO[Si](C)(C)C(C)(C)C)N[C@@H](c5ccccc5)[C@H]2[C@H]34)cc1 28.7

Specify reported TGI for the molecule shown: C=CC(=O)N1CCC(c2ccc(C(N)=O)c(-c3ccc(Oc4ccccc4)cc3)n2)CC1 76.6

###

Test system: SNB-19 CNS
Experiment: NCI tumour cell line growth inhibition, 48 h; in the data active = GI50 below about 0.43 µM; inactive = the rest
Outcomes you can answer with include only these: active, inactive

Please share the test call associated with COc1ccccc1/C=C1\COc2ccc(-c3ccccc3)cc2C1=O . inactive

Please share the test call associated with C=CC(=O)N1CCC(c2ccc(C(N)=O)c(-c3ccc(Oc4ccccc4)cc3)n2)CC1 . inactive

Please share the test call associated with Cc1ccc(S(=O)(=O)Oc2ccc3c4c(c(=O)oc3c2)CCCCCC4)cc1 . inactive

Please share the test call associated with COC(=O)c1c2c(c(C)[n+]([O-])c1C)C(=O)C=C(NCc1ccccc1)C2=O . inactive

Please share the test call associated with CCC[CH2][Sn]([CH2]CCC)([O]C(=O)c1cc(OC)c(OC)cc1OC)[O][Sn]([CH2]CCC)([CH2]CCC)[O]C(=O)c1cc(OC)c(OC)cc1OC . active

Please share the test call associated with O=C(NCCN1CCOCC1)OCc1nc2nc(Cl)nc(N3CCOCC3)c2[nH]1 . inactive

Please share the test call associated with CCCCNNC(=O)c1ccc(Br)cc1 . inactive

Please share the test call associated with COc1cc(CNc2nc3c(N)cc(C(F)(F)F)cc3nc2-c2ccccc2)cc(OC)c1OC . inactive

Please share the test call associated with Oc1c(C(Nc2ccccc2Br)c2ccccc2)ccc2cccnc12 (centres undefined) . inactive

Please share the test call associated with NC(=N\N=C/c1ccc(O)cc1)/C(N)=N\N=C/c1ccc(O)cc1 . inactive

Please share the test call associated with Nc1ccn(C2CC(F)C(CO)O2)c(=O)n1 (centres undefined) . inactive

Please share the test call associated with [2H]C([2H])([2H])NC(=O)c1nnc(NC(=O)C2CC2)cc1Nc1cccc(-c2ncn(C)n2)c1OC . inactive

Please share the test call associated with c1ccc(-c2nn3c(c2-c2ccnc4cc(OCCN5CCOCC5)ccc24)CCC3)nc1 . inactive

Please share the test call associated with COc1ccc2c(c1)/C(=C\c1ccncc1)C(=O)N2 . inactive

###

Tested on: HS 578T breast
Test: NCI tumour cell line growth inhibition, 48 h; in the data active means GI50 below about 0.43 µM; inactive means the rest
Outcomes you can answer with include only these: TRUE (active), FALSE (inactive)

Please share the test call associated with C=CC(=O)N1CCC(c2ccc(C(N)=O)c(-c3ccc(Oc4ccccc4)cc3)n2)CC1 . FALSE

Please share the test call associated with COc1ccc2c(c1)nc(NNC(=O)c1cnccn1)c1cccn12 . FALSE

Please share the test call associated with NC(=N\N=C/c1ccc(O)cc1)/C(N)=N\N=C/c1ccc(O)cc1 . FALSE

Please share the test call associated with COc1ccc(/C=C(/c2ccccc2)[N+](=O)[O-])c(OC)c1 . FALSE

Please share the test call associated with C=C1C(=O)O[C@H]2[C@H]1CC/C(COC(=O)CCCCCC(=O)OC/C1=C/CC[C@@]3(C)O[C@H]3[C@H]3OC(=O)C(=C)[C@@H]3CC1)=C\CC[C@@]1(C)O[C@@H]21 . FALSE

Please share the test call associated with [2H]C([2H])([2H])NC(=O)c1nnc(NC(=O)C2CC2)cc1Nc1cccc(-c2ncn(C)n2)c1OC . FALSE

Please share the test call associated with CCCCC(SC(=S)N1CCCC1)C(=O)Nc1nc(CC(=O)OCC)cs1 (centres undefined) . FALSE

Please share the test call associated with COc1ccc(C(=O)Cn2c(C(=O)c3ccccc3)nc3ccccc32)cc1 . FALSE

Please share the test call associated with Cc1cn2c(/C=C3/C(=O)Nc4c3ccc3ccccc43)c(C(F)(F)F)nc2s1 . FALSE

Please share the test call associated with Cc1ccc(/C=C(\C#N)c2cc3ccccc3n2C)cc1 . FALSE

Please share the test call associated with N#Cc1nc(-c2ccc(F)cc2)oc1S(=O)(=O)N1CCCCC1 . FALSE

Please share the test call associated with COc1c(C(C)=O)c(OCCCCOc2c(C(C)=O)c(OC)c3ccoc3c2OC)c(OC)c2occc12 . FALSE

Please share the test call associated with Nc1ccn(C2CC(F)C(CO)O2)c(=O)n1 (centres undefined) . FALSE

Please share the test call associated with CO/N=C(\COc1ccc2c(=O)c3ccccc3oc2c1)c1ccccc1 . FALSE

Please share the test call associated with C=C(C)[C@@H]1CCC=C2CC[C@]3(C)[C@H](CC[C@@H]4[C@@]5(C)CCCNC(C)(C)[C@@H]5CC[C@]43C)[C@H]21 . FALSE

###

Tested on: SNB-19 CNS
Assay: NCI tumour cell line growth inhibition, 48 h
// reported TGI for each item listed

>  <compound>
N#CC1(C#N)C(C#N)(C#N)C1(C#N)C(N)=O

>  <reportedResult>
> 100 µM

$$$$

Specify reported TGI for the compound shown: Cc1cc(S(=O)(=O)Nc2nc3ncccc3[nH]2)c(S)cc1Cl > 100 µM

Specify reported TGI for the compound shown: O=C1COc2cc(N3CCN(c4cccc(C(F)(F)F)c4)CC3)ccc2N1 > 100 µM

Specify reported TGI for the compound shown: CC(C)(C)C1CCC2c3c([nH]c4ccccc34)C3C(=O)N(c4ccc(C#N)cc4)C(=O)C3C2C1 (centres undefined) > 100 µM

Specify reported TGI for the compound shown: CNc1nnc(CCCCCCCCc2nnc(NC)o2)o1 > 100 µM

Specify reported TGI for the compound shown: Cc1cccc2c(N)c3cccc(C(=O)NCC[N+](C)(C)Cc4ccc([N+](=O)[O-])s4)c3nc12 60.2 µM
